system: HCC-2998 colon; assay: NCI tumour cell line growth inhibition, 48 h
Please respond with reported TGI for every item in the list.
Write down the numeric answer in µM and omit the unit.

Give reported TGI value for C=C[C@]1(C)CC(O)C2C(=C)C(=O)OC2[C@H]1C(=C)C=O (some centres undefined)
27.9

Give reported TGI value for `CCOC(=O)c1cnc2c(C)cc(C)cc2c1NCCCN(C)C`
19.6

Give reported TGI value for `CCCCC(CCCC)=NNC(=S)SC`
54.4

Give reported TGI value for O=C1/C(=C\c2cccc(Oc3ccccc3)c2)S(=O)(=O)C(c2ccccc2)N1c1cc(Cl)ccc1Cl (centres undefined)
56.6

Give reported TGI value for COC1CC(OC2C(C)OC(OC3C(C)OC(OC4CCC5(C)C(=CCC6(O)C5CC(OC(=O)c5ccc(O)cc5)C5(C)C(O)(C(C)=O)CCC65O)C4)CC3OC)CC2OC)OC(C)C1O (centres undefined) (tested in a mixture with another compound)
60.5

Give reported TGI value for `Oc1c(CNCCCN2CCCC2)cc(Cl)c2cccnc12`
10.2
